Cited source: patent US20110319869A1

Listed below: T2 binding (relative fluorescence) values for each entry.
target: T1, HLA-A2 molecule (human); experiment: T2 cell binding assay: flow cytometry of surface HLA-A2 with anti-HLA-A2 mAb after incubation with peptide (50 µg/ml)
T1 construct: also called HLA-A2 on T2 cells (174CEM-T2; T2A2 cells)
QUANTITY_KIND: T2 binding (relative fluorescence)

In [3]: df
Out[3]:
                                     binder                       quantity_kind                       test_result
0  AMWGQDVTSL [MUC-1 peptide analogue M-93/L-101]  T2 binding (relative fluorescence)  325 relative fluorescence values
1  AIWGQDVTSL [MUC-1 peptide analogue I-93/L-101]  T2 binding (relative fluorescence)  280 relative fluorescence values
2  ALWGQDVTSV (also called L-93; MUC-1 peptide) [MUC-1 agonist peptide P-93L, ALWGQDVTSV]  T2 binding (relative fluorescence)  821 relative fluorescence values
3  ALWGQDVTSL [MUC-1 peptide analogue L-93/L-101]  T2 binding (relative fluorescence)  736 relative fluorescence values
4  ATWGQDVTSV (Synthetic 10-mer from the non-VNTR region of MUC-1) [MUC-1 peptide P-92 (native), ATWGQDVTSV]  T2 binding (relative fluorescence)  510 relative fluorescence values
